Cited source for all entries: the OPERA property sets (Mansouri et al. 2018)

compounds and their reported logP

Clc1ccc(N2CCN(CCn3nnc4ccccc43)CC2)cc1	3.4

Entry CC1(C)SC2C(NC(=O)C(c3ccccc3)S(=O)(=O)O)C(=O)N2C1C(=O)O (stereo unspecified) has what logP?
-0.22

Then this compound: `CC(C)CCNc1ncnc2nc[nH]c12`
2.51

Then this compound: `Cc1cccc(C)c1OCCN(C)C`
2.74

Then this compound: `O=c1cc(-c2cccc(Cl)c2)oc2ccccc12`
3.91

Then this compound: `NC(=O)c1cccc(Cc2ncccn2)c1`
0.28

Then this compound: `CCN(CCO)CCCOc1cc2ncnc(Nc3cc(CC(=O)Nc4cccc(F)c4F)[nH]n3)c2cc1OC`
3.5

Then this compound: CC(C)NCC(O)COc1ccc(Cc2nc(Br)c[nH]2)cc1 (stereo unspecified)
2.2

Then this compound: Nc1ccn(C2CC(CO)C(O)C2O)c(=O)n1 (stereo unspecified)
-2.41
